src = PubChem BioAssay

System: Human papillomavirus type 1a E7 protein (residues 1-88)
Test: HPV1a E7 small-molecule binders, primary screen, biochemical, small-molecule microarray, residues 1-88, 635 nm (AID 1129)
Settings: small-molecule microarray binding, fluorescence 635 nm; higher = more signal
assay-metric: composite z-score

| molecule | measured-target | assay-metric | numeric-value |
| --- | --- | --- | --- |
| COc1cccc([C@H]2Oc3ccc(OC)cc3C(=NOC[C@@H](O)COCc3ccco3)[C@@H]2O)c1 | Human papillomavirus type 1a E7 protein (residues 1-88) | composite z-score | -1.3 |
| C#CCCCON=C1C[C@@H](O)[C@@H](O)[C@@H]2[C@@H]3C(=O)N(CC)C(=O)[C@@H]3CC[C@@H]12 | Human papillomavirus type 1a E7 protein (residues 1-88) | composite z-score | 0.63 |
| C=CC[C@@H]1C=C[C@H](ON=C[C@@H](C)[C@H](OCc2ccccc2)C(C)C)[C@@H](CO)O1 | Human papillomavirus type 1a E7 protein (residues 1-88) | composite z-score | -0.324 |
| CCOC(=O)[C@H](Cc1ccccc1)NC(=O)CCC1CC(OC(=O)NCCc2ccc(F)cc2)CC2(CCCC(COC(=O)NCCCN3CCCC3=O)O2)O1 (stereo partly drawn) | Human papillomavirus type 1a E7 protein (residues 1-88) | composite z-score | 0.902 |
| O=C1C[C@@H](O)[C@@H](O)[C@@H]2[C@@H]3C(=O)N(Cc4ccccc4)C(=O)[C@@H]3CC[C@@H]12 | Human papillomavirus type 1a E7 protein (residues 1-88) | composite z-score | 0.789 |
| O=C1CCCC=C1C(CCc1ccccc1)OC(=O)c1ccc(Br)cc1 (stereo not drawn) | Human papillomavirus type 1a E7 protein (residues 1-88) | composite z-score | -0.757 |
| CC(CCN1CCCCc2nc(C)c(C)cc21)=NO[C@H](C)c1cn([C@H](CO)Cc2ccccc2)nn1 | Human papillomavirus type 1a E7 protein (residues 1-88) | composite z-score | -0.556 |
| CO[C@@H]1COC(=O)[C@H](CCSC)NC(=O)CC=C[C@@H](C)COC(=O)CCC[C@H]1C | Human papillomavirus type 1a E7 protein (residues 1-88) | composite z-score | -1.17 |

---

Experiment: E. coli DRC41 culture turbidity changes, primary screen, E. coli filamentation inducer project, strain DRC41, OD650, 48 h (AID 1152);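 also: E. coli MC1000 strain DRC41 lacking acrAB efflux pump and sulA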
Conditions: E. coli DRC41 (acrAB sulA), higher = more signal, called active from +8 up or from −8 down
Quick list: z-score per entry.

| smiles-data | z-score |
| --- | --- |
| COC(=O)[C@@H]1CC[C@H](C)[C@@H](c2ccc(C)cc2)N1C(=O)c1ccc(C=NO[C@@H]2O[C@H](COC(C)=O)[C@@H](OC(C)=O)[C@H](OC(C)=O)[C@H]2OC(C)=O)cc1 | -0.492 |
| COC(=O)CC=C[C@@H](C)[C@@H](C=NO[C@H](C)c1cn([C@H](CO)Cc2ccccc2)nn1)NS(=O)(=O)c1ccc(C)cc1 | -0.0528 |
| Cn1c(=O)n2n(c1=O)[C@H]1[C@H](O)[C@@H]3O[C@@H]3C(=O)[C@H]1CC2 | 0.498 |

---

Target: NADPH oxidase 2 (Homo sapiens) (UniProt P04839)
Sequence (P04839 whole entry, looked up): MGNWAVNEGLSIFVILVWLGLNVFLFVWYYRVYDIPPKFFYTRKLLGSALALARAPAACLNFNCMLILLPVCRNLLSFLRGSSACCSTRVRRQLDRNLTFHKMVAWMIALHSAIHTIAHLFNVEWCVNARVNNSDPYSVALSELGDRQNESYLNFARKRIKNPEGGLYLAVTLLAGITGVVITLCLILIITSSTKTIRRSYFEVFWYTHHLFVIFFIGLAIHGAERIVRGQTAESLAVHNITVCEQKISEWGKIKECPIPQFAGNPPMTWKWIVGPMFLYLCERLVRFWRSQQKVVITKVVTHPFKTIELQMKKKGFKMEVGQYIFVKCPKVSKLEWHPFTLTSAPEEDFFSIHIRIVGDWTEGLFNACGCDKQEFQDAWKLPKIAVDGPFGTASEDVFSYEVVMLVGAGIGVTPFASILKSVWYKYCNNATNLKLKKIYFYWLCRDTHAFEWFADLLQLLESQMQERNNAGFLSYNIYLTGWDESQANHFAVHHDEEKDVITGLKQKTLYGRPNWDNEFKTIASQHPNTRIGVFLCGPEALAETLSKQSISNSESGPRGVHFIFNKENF
Experiment: NOX2-dependent H2O2 signal modulators, primary screen, NOX inhibitor project, cell-based, HEK293-NOX2, PMA-stimulated, Amplex Red fluorescence (AID 1159); also: test concentration not given here
Details: 45 min, higher = more signal, called active from +8 up or from −8 down
Quick rule for you: z-score at -0.04 or higher means criterion met, lower means criterion not met.

| compound | group |
| --- | --- |
| Cc1ccc(S(=O)(=O)N[C@H]2COC(=O)CC=C[C@H](C)[C@@H](NS(=O)(=O)c3ccc(C)cc3)COC(=O)CC=C[C@@H]2C)cc1 | criterion met |
| COC(=O)[C@H](C)NC(=O)CCC1CC(OC(=O)NCc2ccc3c(c2)OCO3)CC2(CCCC(COC(=O)NCC(c3ccccc3)c3ccccc3)O2)O1 (stereo partly drawn) | criterion not met |
| O=c1n(Cc2cc3c(cc2Cl)OCO3)c(=O)n2n1CC[C@@H]1C(=NOCc3ccccc3)[C@H]3O[C@H]3[C@@H](O)[C@@H]12 | criterion not met |
| COC(=O)CC=C[C@@H](C)[C@@H](C=NO[C@H](C)c1cn([C@@H]2COC[C@H]2O)nn1)NS(=O)(=O)c1ccc(C)cc1 | criterion not met |
| CCOC(=O)NN=C1C[C@@H](O)[C@@H](O)[C@@H]2[C@@H]3C(=O)N(Cc4ccccc4)C(=O)[C@@H]3CC[C@H]12 | criterion met |
| O=C1[C@H]2[C@H]3[C@H](O)[C@H](O)CC(=NO[C@@H]4O[C@H](CO)[C@@H](O)[C@H](O)[C@H]4O)[C@H]3CC[C@H]2C(=O)N1c1cccc(Oc2ccccc2)c1 | criterion met |
| COc1ccc(COC(=O)NN=C2C[C@@H](O)[C@@H](O)[C@@H]3[C@@H]4C(=O)N(c5ccc(F)cc5F)C(=O)[C@@H]4CC[C@H]23)cc1 | criterion not met |
| CCN1C(=O)[C@H]2[C@H]3[C@H](O)[C@H](O)CC(=NOC[C@H]4O[C@H](c5ccccc5)C=C[C@@H]4Oc4ccc(OC)cc4)[C@@H]3CC[C@H]2C1=O | criterion met |
| CCOC(=O)[C@H](CC(C)C)NC(=O)CCC1CC(OC(=O)NCc2cccc3ccccc23)CC2(CCCC(COC(=O)NCCOc3ccccc3)O2)O1 (stereo partly drawn) | criterion met |
| O=C1C=C[C@@H](O)[C@@H]2[C@@H]3C(=O)N(C[C@@H]4CCCO4)C(=O)[C@@H]3CC[C@@H]12 | criterion met |
| COC(=O)CC=C[C@@H](C)[C@@H](C=NO[C@@H]1O[C@H](COC(C)=O)[C@@H](OC(C)=O)[C@H](OC(C)=O)[C@H]1OC(C)=O)OC | criterion met |
| Cc1ccc(S(=O)(=O)n2c3ccccc3c3nnc(C(=O)c4ccccc4)nc32)cc1 | criterion not met |
| CCOC(=O)NN=C1C[C@@H](O)[C@@H](O)[C@@H]2[C@@H]3C(=O)N(c4ccc(F)cc4F)C(=O)[C@@H]3CC[C@@H]12 | criterion met |

---

Assay: basal S. cerevisiae growth modulation, no modifier, primary screen, OD600, strain BY4716, 24 h, basal condition (AID 1173)
Conditions: OD600, 24 h, higher = more signal, called active from +8 up or from −8 down

| compound | z-score |
| --- | --- |
| CCOC(=O)[C@H](CC(C)C)NC(=O)CCC1CC(OC(=O)NCc2cccc3ccccc23)CC2(CCCC(COC(=O)NCCCN3CCCC3=O)O2)O1 (stereo partly specified) | -0.761 |
| CC(C)C[C@H](NC(=O)CCC1CC(OC(=O)NCc2cccc3ccccc23)CC2(CCCC(COC(=O)NCc3ccccc3)O2)O1)C(=O)NCC(c1ccccc1)c1ccccc1 (stereo partly specified) | -0.245 |
| COC(=O)CC=C[C@@H](C)[C@@H](C=NO[C@H](C)c1cn([C@H](CO)Cc2ccccc2)nn1)NS(=O)(=O)c1ccc(C)cc1 | -1.17 |
| CO[C@H]1COC(=O)CC=C[C@H](C)[C@@H](OC)COC(=O)[C@@H](C)COC(=O)CC=C[C@@H]1C | -1.2 |
| COC(=O)[C@@H]1CC[C@H](C)[C@@H](c2ccc(C)cc2)N1C(=O)c1ccc(C=NO[C@@H](C)c2cn([C@H](CO)Cc3ccccc3)nn2)cc1 | -0.476 |
| CC1O[C@H]2C3=C(C(=O)[C@@H]4O[C@@H]4[C@H]3O)[C@@H]1C1[C@@H](C)OC=C3[C@H](O)C4O[C@@H]4C(=NOCc4ccccc4)[C@]312 (stereo partly specified) | -0.456 |

---

Assay: basal HepG2 mitochondrial membrane potential changes, profiling panel, cell-based, JC-1 fluorescence, 24 h, 100 nL compound (AID 1167); also: test concentration not given here
Details: higher = more signal

| compound | z-score |
| --- | --- |
| CC[C@@H](c1ccccc1)n1c(=O)n2n(c1=O)[C@H]1[C@H](O)[C@@H]3O[C@@H]3C(=O)[C@H]1CC2 | -0.914 |
| CO[C@@H]1COC(=O)[C@@H](C)COC(=O)[C@@H](C)NC(=O)CC=C[C@@H]1C | 0.2 |
| CCC1=NOC(CCC2CC(OC(=O)NCc3cccc4c3OCO4)CC3(CCCC(COC(=O)NCCc4ccccc4OC)O3)O2)C1 (configuration not stated) | 0.559 |
| COc1ccc(COC(=O)NN=C2C[C@@H](O)[C@@H](O)[C@@H]3[C@@H]4C(=O)N(c5ccc(F)cc5F)C(=O)[C@@H]4CC[C@H]23)cc1 | 0.361 |
| COC(=O)C1=C(C)N(Cc2ccccc2)[C@]23O[C@](C(=O)OC)(C(=O)N2[C@@H]1c1ccccc1)C(C(=O)OC)=C3C(=O)OC | 0.483 |
| CO[C@H]1COC(=O)CC=C[C@H](C)[C@@H](OC)COC(=O)[C@@H](C)NC(=O)CC=C[C@@H]1C | -0.0888 |
| CO[C@H]1COC(=O)[C@H](C)NC(=O)CC=C[C@@H](C)[C@H](OC)COC(=O)[C@@H](OCc2ccccc2)C=C[C@@H]1C | 0.00399 |
